Hey, just so you know, these numbers are from PubChem BioAssay AID1963429.

tested on: 126254-015-R-J1-PDC complex spheroid growth, % test/control; experiment: Anticancer human tumor 126254-015-R-J1-PDC patient-derived soft tissue sarcoma cell line growth inhibition [Asc]; settings: second compound 0.0949 µM; first compound 0.1 µM; active compounds read low;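 further: spheroids exposed to compound for seven days; 100% = DMSO vehicle control wells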
MEASUREMENT_TYPE: viability, T/C (%)
Quick reminder: number only, in %, skip the unit.

Example entries begin here.
NC1CCC(NC2CC2c2ccccc2)CC1 (stereo not given) + CCN1C(C(=O)NC23CCC(C(=O)O)(CC2)CC3)C(c2cccc(Cl)c2F)C2(C(=O)Nc3cc(Cl)ccc32)C12CCCCC2 = 85.9
C=CC(=O)N1CCN(c2nc(=O)n(-c3c(C)ccnc3C(C)C)c3nc(-c4c(O)cccc4F)c(F)cc23)C(C)C1 (stereo not given) + CCN1C(C(=O)NC23CCC(C(=O)O)(CC2)CC3)C(c2cccc(Cl)c2F)C2(C(=O)Nc3cc(Cl)ccc32)C12CCCCC2 = 92.6
CNC(C)C(=O)NC1CN(S(=O)(=O)c2cccc(S(=O)(=O)N3CCC4CCC(C(=O)NC(c5ccccc5)c5ccccc5)N4C(=O)C(NC(=O)C(C)NC)C3)c2)CCC2CCC(C(=O)NC(c3ccccc3)c3ccccc3)N2C1=O (stereo not given) + CCN1C(C(=O)NC23CCC(C(=O)O)(CC2)CC3)C(c2cccc(Cl)c2F)C2(C(=O)Nc3cc(Cl)ccc32)C12CCCCC2 = 67.2

Exercise: Identify measured viability, T/C obtained with 126254-015-R-J1-PDC complex spheroid growth, % test/control for O=C(c1cc(Cc2n[nH]c(=O)c3ccccc23)ccc1F)N1CCN(C(=O)C2CC2)CC1 + CCN1C(C(=O)NC23CCC(C(=O)O)(CC2)CC3)C(c2cccc(Cl)c2F)C2(C(=O)Nc3cc(Cl)ccc32)C12CCCCC2 .
Solution: 100

Exercise: Name the value of viability, T/C reported for Cn1ncnc1[C@H]1c2n[nH]c(=O)c3cc(F)cc(c23)N[C@@H]1c1ccc(F)cc1 + CCN1C(C(=O)NC23CCC(C(=O)O)(CC2)CC3)C(c2cccc(Cl)c2F)C2(C(=O)Nc3cc(Cl)ccc32)C12CCCCC2 when tested on 126254-015-R-J1-PDC complex spheroid growth, % test/control.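 Further: spheroids exposed to compound for seven days; 100% = DMSO vehicle control wells.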
Solution: 68
